So I've got a bunch of molecules here, and I need their Binding Inhibition values.
test system: angiotensin II receptor; test: Angiotensin II receptor binding assay ([3H] angiotensin II); parameters: species or system rat (Sprague-Dawley adrenal cortex/medulla; Wistar liver); conditions: 25° C., 60 minutes, test concentration not given
Numbers only, in %.

A selection of reference data follows.
MOLECULE: CCCCc1nc2cc(-c3cccc[n+]3[O-])c(C(=O)OC)nc2n1Cc1ccc(-c2ccccc2-c2nn[nH]n2)cc1
STUDY SYSTEM: angiotensin II receptor
UNIT TAG: %
Binding Inhibition: 92.1

MOLECULE: CCCCc1nc2cc(-c3cccc[n+]3[O-])c(CO)nc2n1Cc1ccc(-c2ccccc2-c2nn[nH]n2)cc1
STUDY SYSTEM: angiotensin II receptor
UNIT TAG: %
Binding Inhibition: 85.4

Hi there! I need Binding Inhibition for each item below, if you can.
1. CCCCc1nc2cc(-c3ccc[n+]([O-])c3)c(C)nc2n1Cc1ccc(-c2ccccc2-c2nn[nH]n2)cc1
2. CCCCc1nc2cc(-c3cccc[n+]3[O-])c(C(=O)N(CC)CC)nc2n1Cc1ccc(-c2ccccc2-c2nn[nH]n2)cc1
3. CCCCc1nc(Cl)c(CO)n1Cc1ccc(-c2ccccc2-c2nn[nH]n2)cc1 [Losartan (Dup 753), Losartan, reference compound]
4. CCCCc1nc2cc(-c3cc[n+]([O-])cc3)c(C)nc2n1Cc1ccc(-c2ccccc2-c2nn[nH]n2)cc1
5. CCCCc1nc2cc(-c3cc[n+]([O-])cc3)c(CO)nc2n1Cc1ccc(-c2ccccc2-c2nn[nH]n2)cc1

94.6
60.3
48.0
95.5
96.9

Tell me the measured Binding Inhibition of CCCCc1nc2cc(-c3cccc[n+]3[O-])c(C)nc2n1Cc1ccc(-c2ccccc2-c2nn[nH]n2)cc1 , please.
86.4
